# System Under Test: ICAM-1 expressed on cells (JY cells; stimulated endothelial cells) (UniProt P05362 28-532, limits assumed)
# Sequence (P05362 28-532 limits assumed): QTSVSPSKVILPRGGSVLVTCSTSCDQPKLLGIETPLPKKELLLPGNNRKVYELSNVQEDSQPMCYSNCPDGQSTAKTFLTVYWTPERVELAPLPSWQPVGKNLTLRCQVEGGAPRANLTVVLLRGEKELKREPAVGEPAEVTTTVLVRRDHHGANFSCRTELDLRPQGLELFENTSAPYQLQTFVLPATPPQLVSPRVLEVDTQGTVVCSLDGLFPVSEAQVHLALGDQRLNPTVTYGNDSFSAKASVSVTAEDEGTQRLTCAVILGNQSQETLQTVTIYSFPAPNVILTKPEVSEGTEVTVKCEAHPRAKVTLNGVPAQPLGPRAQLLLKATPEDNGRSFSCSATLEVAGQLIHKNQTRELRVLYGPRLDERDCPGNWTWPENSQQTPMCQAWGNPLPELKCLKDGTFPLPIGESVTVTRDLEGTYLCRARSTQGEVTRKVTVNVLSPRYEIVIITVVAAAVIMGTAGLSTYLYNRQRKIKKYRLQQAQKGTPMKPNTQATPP
# Test Description: cell-based or functional assay
Bridge positions count the residues as written; N and C are the ends. Ends that are not written are not given here.
Can you tell me Percent Inhibition for the items I'm about to list?
Numbers only, in percent.

CLARMRSIC (disulfide 1-9) [CLARMRSIC (SEQ ID NO: 35), cyclic disulfide-linked peptide] ... 9
CLLRMRSIC (disulfide 1-9, Synthesized by Biopeptide; consensus derived from phage display on ICAM-1) [consensus peptide CLLRMRSIC (SEQ ID NO: 1), cyclized in the disulfide-linked form] ... 46
CLLRMRSAC (disulfide 1-9) [CLLRMRSAC (SEQ ID NO: 40), cyclic disulfide-linked peptide] ... 61

Quote Percent Inhibition reported for CLLRARSIC (disulfide 1-9) [CLLRARSIC (SEQ ID NO: 37), cyclic disulfide-linked peptide] please.
5

Attribution: patent US20010034326A1
